- System: human peripheral blood lymphocytes (sheep red blood cells as antigen)
- assay_info: Antigen-specific adjuvanticity: direct anti-SRBC plaque forming cells, human system
- Type: cell-based
- test_context: Table 7, second group; person b
Below is a list of entries, each paired with its recorded Peak Direct anti-SRBC PFC/Culture value.
reported_metric: Peak Direct anti-SRBC PFC/Culture (PFC/Culture)

compound: Cn1c(=O)n([C@@H]2O[C@H](CO)[C@@H](O)[C@H]2O)c2nc(N)[nH]c(=O)c21 [7m8oGuo, 7-methyl-8-oxoguanosine, reference compound]
measured_target: human peripheral blood lymphocytes (sheep red blood cells as antigen)
measure_unit: PFC/Culture
data_value: 297
//
compound: C=CCn1c(=S)n([C@@H]2O[C@H](CO)[C@@H](O)[C@H]2O)c2nc(N)[nH]c(=O)c21 [7a8MGuo, 7-(2-Propenyl)-8-thioxoguanosine]
measured_target: human peripheral blood lymphocytes (sheep red blood cells as antigen)
measure_unit: PFC/Culture
data_value: 6475
//
compound: C=CCn1c(=S)n([C@@H]2O[C@H](COC(C)=O)[C@@H](OC(C)=O)[C@H]2OC(C)=O)c2nc(N)[nH]c(=O)c21 [compound 22360]
measured_target: human peripheral blood lymphocytes (sheep red blood cells as antigen)
measure_unit: PFC/Culture
data_value: 6008

* * *

- System: human peripheral blood lymphocytes (sheep red blood cells as antigen)
- assay_info: Antigen-specific adjuvanticity: direct anti-SRBC plaque forming cells, human system
- Type: cell-based
- test_context: Table 7, second group; person a
Below is a list of entries, each paired with its recorded Peak Direct anti-SRBC PFC/Culture value.
reported_metric: Peak Direct anti-SRBC PFC/Culture (PFC/Culture)

compound: Cn1c(=O)n([C@@H]2O[C@H](CO)[C@@H](O)[C@H]2O)c2nc(N)[nH]c(=O)c21 [7m8oGuo, 7-methyl-8-oxoguanosine, reference compound]
data_value: 528

compound: C=CCn1c(=S)n([C@@H]2O[C@H](CO)[C@@H](O)[C@H]2O)c2nc(N)[nH]c(=O)c21
data_value: 673

compound: C=CCn1c(=O)n([C@@H]2O[C@H](CO)[C@@H](O)[C@H]2O)c2nc(N)[nH]c(=O)c21
data_value: 477

compound: C=CCn1c(=S)n([C@@H]2O[C@H](COC(C)=O)[C@@H](OC(C)=O)[C@H]2OC(C)=O)c2nc(N)[nH]c(=O)c21
data_value: 925

* * *

Below is a list of entries, each paired with its recorded [3H] TdR Uptake value.
- System: murine spleen cells
- assay_info: Mitogenicity: [3H]TdR uptake, murine system
- Format: cell-based, mouse
- test_context: Table 4; 3 × 10^-4 M

compound: CCn1c(=O)n([C@@H]2O[C@H](CO)[C@@H](O)[C@H]2O)c2nc(N)[nH]c(=O)c21
[3H] TdR Uptake: 48,690 ± 1120 cpm/culture
//
compound: Cn1c(=O)n([C@@H]2O[C@H](CO)[C@@H](O)[C@H]2O)c2nc(N)[nH]c(=O)c21 [7m8oGuo, 7-methyl-8-oxoguanosine, reference compound]
[3H] TdR Uptake: 39,620 ± 1160 cpm/culture
//
compound: CCCCn1c(=O)n([C@@H]2O[C@H](CO)[C@@H](O)[C@H]2O)c2nc(N)[nH]c(=O)c21
[3H] TdR Uptake: 41,180 ± 410 cpm/culture
//
compound: C=CCn1c(=O)n([C@@H]2O[C@H](CO)[C@@H](O)[C@H]2O)c2nc(N)[nH]c(=O)c21
[3H] TdR Uptake: 59,150 ± 420 cpm/culture
